# Tested on: A498 renal
# procedureDetails: NCI-60 one-dose screen, 48 h (100 = growth as untreated, 0 = no growth, -100 = all killed)
# settings: 10 µM unless noted
This is part of a sample that, as a whole, favours compounds with a hit. Of some 83,000 tested, about 20% had one in any assay.
Known growth of a selection of molecules
valueType: growth (%)

* CCCCOc1nc2ccccc2cc1C1CNC(=O)c2ccccc2N1 (stereo not drawn) | -11.2
* O=C(CCCCCCSc1nc(-c2ccccc2)cc(-c2ccc(Cl)cc2)n1)NO | 24.2
* O=C(O)CN1C(=O)CCC1=O | 97.4
* C=CC(=O)Nc1cccc(Oc2nccc(Nc3nnc(C4CC4)s3)n2)c1 | 101
* CC1(C)CC[C@]2(C(=O)N3CCOCC3)CC[C@]3(C)C(=CC[C@@H]4[C@@]5(C)CC[C@H](OC(=O)c6cccnc6)C(C)(C)[C@@H]5CC[C@]43C)[C@@H]2C1 | 70.3
* CCCc1cc2c(=O)c(C(=O)OC)c[nH]c2cc1N(CC)CC | 107
* COc1ccc(N=Nc2ccc(O)c(=O)cc2)cc1 | 82.4
* O=C(COc1ccc(/C=C2\Oc3ccccc3C2=O)cc1)Nc1nc2c(s1)CCCC2 | 110
* Cc1cccc(Cc2cnc(NC(=O)c3ccc4nnsc4c3)s2)c1 | 106
* O=C1/C(=C\c2cccnc2)SC(=S)N1CCc1ccc(O)cc1 | 85.1
* O=C(c1ccccc1)N1N=C(c2ccccc2)CC1c1nnc2n(Cc3ccccc3)c(=O)c3c4c(sc3n12)CCCC4 (stereo not drawn) | 114
* O=C1OC(c2nc3ccccc3s2)=C/C1=C\c1ccc(O)cc1 | 108
* O=c1c2cc(F)ccc2sc2c(NCCCN3CCCC3)nc3ccccc3c12 | 46.6

====

Known growth of a selection of compounds
# Tested on: DU-145 prostate
# procedureDetails: NCI-60 one-dose screen, 48 h (100 = growth as untreated, 0 = no growth, -100 = all killed)
# settings: 10 µM unless noted
The panel holds about 83,000 compounds, 20% with a hit somewhere; the sample as a whole holds those more often.
valueType: growth (%)

* Cc1ccc(-n2nc3c(c(C#N)c2=O)CC(c2ccccc2Cl)C([N+](=O)[O-])=C3O)cc1 (stereo not given) | 107
* COc1ccc2[nH]c(O)c(C(=Nc3ccc(N(C)C(=O)CN4CCN(C)CC4)cc3)c3ccccc3)c2c1 | 27.7
* Cc1ccc2[nH]c(=O)c3c(c2c1)OC(N)=C(C#N)C31c2cc(Br)ccc2-c2ccc(Br)cc21 | 29.1
* CCCCCCCC/C=C\CCCCCCCCOc1ccccc1CC(=O)NCC[N+](C)(C)C | 80.1
* N=C1CCC(=N)c2c1c(O)c1ccccc1c2O | 106
* O=C(O)c1ccc2c(c1)CCC2 | 118
* c1csc(-c2c3ccc(=[N+]4CCCCC4)cc-3oc3cc(N4CCCCC4)ccc23)c1 | -96.6
* O=S(=O)(O)c1ccc(N/N=C/c2ccccc2Cl)cc1 | 116
* COc1cc2nc(Cl)nc(Nc3ccc(S(=O)(=O)Nc4nccs4)cc3)c2cc1OC | 119
* CCc1ccccc1-n1c(-c2ccc(Cl)cc2)cc(-c2ccc(OC)cc2)c(C#N)c1=O | 94.6

====

# System: SF-539 CNS
# procedureDetails: NCI-60 one-dose screen, 48 h (100 = growth as untreated, 0 = no growth, -100 = all killed)
# settings: 10 µM unless noted
Compounds without any hit were thinned out: in the full panel of roughly 83,000, 20% have a hit.
valueType: growth (%)

• CC(CN1CCCCC1)C(=O)c1ccccc1 (stereo not given) = 92.1
• COc1cccc(/C=C/C(=O)c2c(C)nc3ccccc3c2/C=C/c2ccc(C)cc2)c1OC = 72.8
• CCC1(C2CCCC2)NC(=O)NC1=O (stereo not given) = 86.3
• O=C(CCc1nnc(CN(c2ccccc2)c2ccccc2)o1)c1nc2ccccc2[nH]1 = 97.5
• COc1ccc(/C=C/c2c(C(=O)/C=C/c3cccs3)c(C)nc3ccccc23)cc1 = 95.9
• COC1=C(OC)C(=O)C(OC)=C(OC)C1=O = 114
• N#C/C(=C\c1ccc(Br)cc1)n1nnc2cc(F)c(F)cc21 = -2.33
• C[C@H]1[C@H]2[C@H]3CC[C@@H]4[C@@]5(C)C/C(=C/c6ccco6)C(=O)C(C)(C)[C@@H]5CC[C@@]4(C)[C@]3(C)CC[C@]23CO[C@]1(C)[C@@H](C(=O)/C=C\c1ccco1)C3 = 93.8
• Cc1occc1-c1n[nH]c(=S)n1N1C(=O)CSC1=S = 98.5
• Cc1cc(C)c(-c2c(C)cc(C)cc2CBr)c(CBr)c1 = 96.4
